# system: LDHA (lactate dehydrogenase A) (Homo sapiens)
# Construct: recombinant human LDHA obtained from Abcam
# protocol description: surface plasmon resonance, CM5 chip, steady-state […]
assay metric: Kd (µM)
Answers are plain numbers, in µM.

Item CC1=C(O)C(=O)C=C2C1=CC=C1[C@@]2(C)CC[C@@]2(C)[C@@H]3C[C@](C)(C(=O)O)CC[C@]3(C)CC[C@]12C has what recorded Kd? 562

Just for reference, paper PMC9121578 is where these values come from.
